Entries with their measured IC50, system Carboxylic ester hydrolase (Equus caballus, UniProt Q9N1N9):
Numbers only, in µM.

Use these answered entries as a reference point.
compound | test-target | measure-unit | IC50
CC(=O)C1=C(C)NC(SCC(=O)Nc2ccccc2)=NC1c1ccc(Br)cc1 (configuration not stated) | Carboxylic ester hydrolase (Equus caballus, UniProt Q9N1N9) | µM | 24.5
CC(=O)C1=C(C)NC(SCC(=O)Nc2ccc(Cl)cc2)=NC1c1ccccc1 (configuration not stated) | Carboxylic ester hydrolase (Equus caballus, UniProt Q9N1N9) | µM | 16.4
CC(=O)C1=C(C)NC(NCC(=O)Nc2ccc(C)cc2)=NC1c1ccc(Cl)cc1 (configuration not stated) | Carboxylic ester hydrolase (Equus caballus, UniProt Q9N1N9) | µM | 26.4
CC(=O)C1=C(C)NC(NCC(=O)Nc2ccc(Cl)cc2)=NC1c1ccccc1 (configuration not stated) | Carboxylic ester hydrolase (Equus caballus, UniProt Q9N1N9) | µM | 27.2
CC(=O)C1=C(C)NC(NCC(=O)Nc2ccc(C)cc2)=NC1c1ccc(Br)cc1 (configuration not stated) | Carboxylic ester hydrolase (Equus caballus, UniProt Q9N1N9) | µM | 20.9
CC(=O)C1=C(C)NC(NCC(=O)Nc2ccccc2)=NC1c1ccc(Br)cc1 (configuration not stated) | Carboxylic ester hydrolase (Equus caballus, UniProt Q9N1N9) | µM | 38.5

For each entry beneath this line, provide reported IC50.
1. CC(=O)C1=C(C)NC(SCC(=O)Nc2ccccc2)=NC1c1ccccc1 (configuration not stated)
2. CC(=O)C1=C(C)NC(SCC(=O)Nc2ccc(C)cc2)=NC1c1ccc(Cl)cc1 (configuration not stated)

[2.37, 50]

For each entry beneath this line, provide reported IC50.
1. CC(=O)C1=C(C)NC(SCC(=O)Nc2ccc(C)cc2)=NC1c1ccc(C)cc1 (configuration not stated)
2. CC(=O)C1=C(C)NC(SCC(=O)Nc2ccc(C)cc2)=NC1c1ccc(Br)cc1 (configuration not stated)
3. CC(=O)C1=C(C)NC(NCC(=O)Nc2ccccc2)=NC1c1ccccc1 (configuration not stated)
4. CC(=O)C1=C(C)NC(NCC(=O)Nc2ccc(C)cc2)=NC1c1ccc(C)cc1 (configuration not stated)

1. 56.3
2. 52.8
3. 15
4. 29.4

---

- test-target: Acetylcholinesterase (Electrophorus electricus, UniProt O42275)
- Sequence (O42275 whole entry): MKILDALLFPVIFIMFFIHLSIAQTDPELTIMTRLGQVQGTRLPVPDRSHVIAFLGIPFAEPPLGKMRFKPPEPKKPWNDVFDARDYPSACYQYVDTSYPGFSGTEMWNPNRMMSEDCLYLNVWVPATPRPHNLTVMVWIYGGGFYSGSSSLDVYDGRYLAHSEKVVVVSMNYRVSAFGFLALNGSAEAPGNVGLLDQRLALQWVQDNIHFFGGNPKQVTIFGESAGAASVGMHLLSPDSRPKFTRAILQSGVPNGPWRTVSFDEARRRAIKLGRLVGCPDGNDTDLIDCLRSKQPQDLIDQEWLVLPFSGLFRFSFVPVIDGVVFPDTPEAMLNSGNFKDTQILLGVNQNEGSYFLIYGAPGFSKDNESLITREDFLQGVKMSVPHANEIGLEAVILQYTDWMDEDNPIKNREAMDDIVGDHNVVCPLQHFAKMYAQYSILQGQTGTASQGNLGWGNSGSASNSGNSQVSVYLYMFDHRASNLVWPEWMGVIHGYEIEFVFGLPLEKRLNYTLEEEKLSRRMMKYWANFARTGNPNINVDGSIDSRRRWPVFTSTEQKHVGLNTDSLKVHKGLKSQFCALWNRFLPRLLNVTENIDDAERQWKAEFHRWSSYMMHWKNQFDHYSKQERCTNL
pIC50: −log10 of the molar value.
Classification field: enter criterion met for pIC50 values not below 5, criterion not met for values below it.

molecule | discrete-label
CC(=O)C1=C(C)NC(N)=NC1c1ccc(Cl)cc1 (stereo unspecified) | criterion not met
CC(=O)C1=C(C)NC(=S)NC1c1ccccc1 (stereo unspecified) | criterion not met
CC(=O)C1=C(C)NC(SCC(=O)Nc2ccc(C)cc2)=NC1c1ccc(Br)cc1 (stereo unspecified) | criterion met
CC(=O)C1=C(C)NC(SCC(=O)Nc2ccccc2)=NC1c1ccccc1 (stereo unspecified) | criterion met
CC(=O)C1=C(C)NC(N)=NC1c1ccc(OCc2ccccc2)cc1 (stereo unspecified) | criterion not met
CC(=O)C1=C(C)NC(=S)NC1c1ccc(Cl)cc1 (stereo unspecified) | criterion not met

Decide: pIC50 of CC(=O)C1=C(C)NC(NCC(=O)Nc2ccc(C)cc2)=NC1c1ccc(Cl)cc1 (stereo unspecified) >= 5?
criterion met

Decide: pIC50 of CC(=O)C1=C(C)NC(=S)NC1c1ccc(OCc2ccccc2)cc1 (stereo unspecified) >= 5?
criterion not met

Decide: pIC50 of CC(=O)C1=C(C)NC(SCC(=O)Nc2ccc(Cl)cc2)=NC1c1ccccc1 (stereo unspecified) >= 5?
criterion met

Decide: pIC50 of CC(=O)C1=C(C)NC(NCC(=O)Nc2ccc(Cl)cc2)=NC1c1ccccc1 (stereo unspecified) >= 5?
criterion met

Decide: pIC50 of CC(=O)C1=C(C)NC(SCC(=O)Nc2ccc(C)cc2)=NC1c1ccc(Cl)cc1 (stereo unspecified) >= 5?
criterion met

Decide: pIC50 of CC(=O)C1=C(C)NC(NCC(=O)Nc2ccc(C)cc2)=NC1c1ccc(Br)cc1 (stereo unspecified) >= 5?
criterion met

Decide: pIC50 of CC(=O)C1=C(C)NC(N)=NC1c1ccc(Br)cc1 (stereo unspecified) >= 5?
criterion not met

---

- test-target: Acetylcholinesterase (Electrophorus electricus, UniProt O42275)
Consider the following compounds; for each one, report its pIC50.
Numbers only, as −log10 of the molar value.

For each entry beneath this line, provide reported pIC50.
1. CC(=O)C1=C(C)NC(SCC(=O)Nc2ccccc2)=NC1c1ccc(Br)cc1 (stereo not drawn)
2. CC(=O)C1=C(C)NC(SCC(=O)Nc2ccc(C)cc2)=NC1c1ccc(C)cc1 (stereo not drawn)
3. CC(=O)C1=C(C)NC(NCC(=O)Nc2ccc(C)cc2)=NC1c1ccc(C)cc1 (stereo not drawn)
4. CC(=O)C1=C(C)NC(NCC(=O)Nc2ccccc2)=NC1c1ccc(Br)cc1 (stereo not drawn)
5. CC(=O)C1=C(C)NC(=S)NC1c1ccc(C)cc1 (stereo not drawn)
6. CC(=O)C1=C(C)NC(NCC(=O)Nc2ccccc2)=NC1c1ccccc1 (stereo not drawn)
7. CC(=O)C1=C(C)NC(N)=NC1c1ccccc1 (stereo not drawn)
8. CC(=O)C1=C(C)NC(=S)NC1c1ccc(Br)cc1 (stereo not drawn)

[5.08, 5.12, 5.10, 4.89, 4.25, 5.27, 4.38, 4.27]
